Test: Half life in ABS buffer at 10 uM at pH 5.0 by HPLC method
Format: physicochemical
observedProperty: half-life at 10 µM (h)
Give the value, in units of h, as a plain number.

- structureSmilesString: "CCc1c2c(nc3ccc(O)cc13)-c1cc3c(c(=O)n1C2)COC(=O)[C@@]3(CC)OC(=O)OCCCn1ccnc1[N+](=O)[O-]"
  unitSymbol: "h"
  half-life at 10 µM: 40

Attention now turns to another entry.
Prompt: Please give the documented half-life at 10 µM of CC(=O)O[C@H]1C(=O)[C@@]2(C)[C@H]([C@H](OC(=O)c3ccccc3)[C@]3(O)C[C@H](OC(=O)[C@H](OC(=O)OCCn4ccnc4[N+](=O)[O-])[C@@H](NC(=O)c4ccccc4)c4ccccc4)C(C)=C1C3(C)C)[C@]1(OC(C)=O)CO[C@@H]1C[C@@H]2O
Completion: 48

###

Listing: half-life at 10 µM of selected molecules
Assay: Half life in PBS buffer at 10 uM at pH 6.5 by HPLC method
Type: physicochemical
The figure you give is taken to be in h; do not add the unit.

Prompt: Respond only with half-life at 10 µM recorded for CCc1c2c(nc3ccc(O)cc13)-c1cc3c(c(=O)n1C2)COC(=O)[C@@]3(CC)OC(=O)OCCn1ccnc1[N+](=O)[O-]
Completion: 41

Prompt: Consider the molecule CC(=O)O[C@H]1C(=O)[C@@]2(C)[C@H]([C@H](OC(=O)c3ccccc3)[C@]3(O)C[C@H](OC(=O)[C@H](OC(=O)OCCn4ccnc4[N+](=O)[O-])[C@@H](NC(=O)c4ccccc4)c4ccccc4)C(C)=C1C3(C)C)[C@]1(OC(C)=O)CO[C@@H]1C[C@@H]2O . State its measured half-life at 10 µM.
Completion: 24

Prompt: Look up half-life at 10 µM of CC(=O)O[C@H]1C(=O)[C@@]2(C)[C@H]([C@H](OC(=O)c3ccccc3)[C@]3(O)C[C@H](OC(=O)[C@H](OC(=O)OCCCn4ccnc4[N+](=O)[O-])[C@@H](NC(=O)c4ccccc4)c4ccccc4)C(C)=C1C3(C)C)[C@]1(OC(C)=O)CO[C@@H]1C[C@@H]2O and report it.
Completion: 24

###

Test: Prodrug conversion assessed as Escherichia coli nitroreductase mediated SN38 reduction by measuring half life at 10 uM in presence of NADPH by HPLC method
Assay type: ADME
Details: isolated protein
observedProperty: t1/2

- structureSmilesString: "CCc1c2c(nc3ccc(O)cc13)-c1cc3c(c(=O)n1C2)COC(=O)[C@@]3(CC)OC(=O)OCCn1ccnc1[N+](=O)[O-]"
  observedProperty: "t1/2"
  result: "30 min"
- structureSmilesString: "CC(=O)O[C@H]1C(=O)[C@@]2(C)[C@H]([C@H](OC(=O)c3ccccc3)[C@]3(O)C[C@H](OC(=O)[C@H](OC(=O)OCCn4ccnc4[N+](=O)[O-])[C@@H](NC(=O)c4ccccc4)c4ccccc4)C(C)=C1C3(C)C)[C@]1(OC(C)=O)CO[C@@H]1C[C@@H]2O"
  observedProperty: "t1/2"
  result: "<= 10 min"
- structureSmilesString: "CCc1c2c(nc3ccc(O)cc13)-c1cc3c(c(=O)n1C2)COC(=O)[C@@]3(CC)OC(=O)OCCCn1ccnc1[N+](=O)[O-]"
  observedProperty: "t1/2"
  result: "<= 10 min"
- structureSmilesString: "CC(=O)O[C@H]1C(=O)[C@@]2(C)[C@H]([C@H](OC(=O)c3ccccc3)[C@]3(O)C[C@H](OC(=O)[C@H](OC(=O)OCCCn4ccnc4[N+](=O)[O-])[C@@H](NC(=O)c4ccccc4)c4ccccc4)C(C)=C1C3(C)C)[C@]1(OC(C)=O)CO[C@@H]1C[C@@H]2O"
  observedProperty: "t1/2"
  result: "<= 10 min"

###

Tested on: HT-29
Experiment: Selectivity ratio, IC50 for human HT-29 cells under normoxic condition to IC50 for human HT29 cells under hypoxic condition
Type: functional
observedProperty: Ratio IC50
Format: numeric value only, no unit, no commentary.

Look over these answered cases.
- compound: "CC(=O)O[C@H]1C(=O)[C@@]2(C)[C@H]([C@H](OC(=O)c3ccccc3)[C@]3(O)C[C@H](OC(=O)[C@H](OC(=O)OCCn4ccnc4[N+](=O)[O-])[C@@H](NC(=O)c4ccccc4)c4ccccc4)C(C)=C1C3(C)C)[C@]1(OC(C)=O)CO[C@@H]1C[C@@H]2O"
  Ratio IC50: 3.11
- compound: "CCc1c2c(nc3ccc(O)cc13)-c1cc3c(c(=O)n1C2)COC(=O)[C@]3(O)CC [7-ETHYL-10-HYDROXYCAMPTOTHECIN]"
  Ratio IC50: 0.82

Attention now shifts to the item below.
Prompt: Give reported Ratio IC50 value for CC(=O)O[C@H]1C(=O)[C@@]2(C)[C@H]([C@H](OC(=O)c3ccccc3)[C@]3(O)C[C@H](OC(=O)[C@H](OC(=O)OCCCn4ccnc4[N+](=O)[O-])[C@@H](NC(=O)c4ccccc4)c4ccccc4)C(C)=C1C3(C)C)[C@]1(OC(C)=O)CO[C@@H]1C[C@@H]2O
Completion: 1.82

###

# Lookup of reported half-life at 10 µM keyed by entry
Organism: Mus musculus
Assay: Drug degradation in mouse plasma assessed as compound half life at 10 uM by HPLC method
Field: numeric (min). Do not append units.

// below: answered compounds
- structureSmilesString: "CCc1c2c(nc3ccc(O)cc13)-c1cc3c(c(=O)n1C2)COC(=O)[C@@]3(CC)OC(=O)OCCn1ccnc1[N+](=O)[O-]"
  observedProperty: "half-life at 10 µM"
  unitSymbol: "min"
  numericResult: 47
- structureSmilesString: "CCc1c2c(nc3ccc(O)cc13)-c1cc3c(c(=O)n1C2)COC(=O)[C@@]3(CC)OC(=O)OCCCn1ccnc1[N+](=O)[O-]"
  observedProperty: "half-life at 10 µM"
  unitSymbol: "min"
  numericResult: 37
- structureSmilesString: "CC(=O)O[C@H]1C(=O)[C@@]2(C)[C@H]([C@H](OC(=O)c3ccccc3)[C@]3(O)C[C@H](OC(=O)[C@H](OC(=O)OCCCn4ccnc4[N+](=O)[O-])[C@@H](NC(=O)c4ccccc4)c4ccccc4)C(C)=C1C3(C)C)[C@]1(OC(C)=O)CO[C@@H]1C[C@@H]2O"
  observedProperty: "half-life at 10 µM"
  unitSymbol: "min"
  numericResult: 55

Could you now consider this next compound?
Prompt: Please look at this compound and report its half-life at 10 µM: CC(=O)O[C@H]1C(=O)[C@@]2(C)[C@H]([C@H](OC(=O)c3ccccc3)[C@]3(O)C[C@H](OC(=O)[C@H](OC(=O)OCCn4ccnc4[N+](=O)[O-])[C@@H](NC(=O)c4ccccc4)c4ccccc4)C(C)=C1C3(C)C)[C@]1(OC(C)=O)CO[C@@H]1C[C@@H]2O
Completion: 20

###

System: HT-29
Assay: Cytotoxicity against human HT-29 cells assessed as growth reduction under normoxic condition after 72 hrs by MTT assay
Format: functional, cell-based
Details: HT-29, 72 h
Each item that follows carries a reported IC50.
API: value field is a number in nM; no unit string.

- compound: "CC(=O)O[C@H]1C(=O)[C@@]2(C)[C@H]([C@H](OC(=O)c3ccccc3)[C@]3(O)C[C@H](OC(=O)[C@H](OC(=O)OCCCn4ccnc4[N+](=O)[O-])[C@@H](NC(=O)c4ccccc4)c4ccccc4)C(C)=C1C3(C)C)[C@]1(OC(C)=O)CO[C@@H]1C[C@@H]2O"
  studyTarget: "HT-29"
  unitSymbol: "nM"
  IC50: 290

Prompt: Look up HT-29 data: IC50 of CC(=O)O[C@H]1C(=O)[C@@]2(C)[C@H]([C@H](OC(=O)c3ccccc3)[C@]3(O)C[C@H](OC(=O)[C@H](OC(=O)OCCn4ccnc4[N+](=O)[O-])[C@@H](NC(=O)c4ccccc4)c4ccccc4)C(C)=C1C3(C)C)[C@]1(OC(C)=O)CO[C@@H]1C[C@@H]2O , then report it.
Completion: 140

Prompt: Would you please give the reported IC50 of CCc1c2c(nc3ccc(O)cc13)-c1cc3c(c(=O)n1C2)COC(=O)[C@]3(O)CC [7-ETHYL-10-HYDROXYCAMPTOTHECIN] with HT-29?
Completion: 96

Prompt: Look up HT-29 data: IC50 of CC(=O)O[C@H]1C(=O)[C@@]2(C)[C@H]([C@H](OC(=O)c3ccccc3)[C@]3(O)C[C@H](OC(=O)[C@H](O)[C@@H](NC(=O)c4ccccc4)c4ccccc4)C(C)=C1C3(C)C)[C@]1(OC(C)=O)CO[C@@H]1C[C@@H]2O , then report it.
Completion: 14

###

Assay: Drug degradation in human plasma assessed as compound half life at 10 uM by HPLC method
Type: ADME, cell-free
Parameter half-life at 10 µM: see the listing below.
# unit: h | format: bare number

Below are worked cases with known answers.
- structureSmilesString: "CCc1c2c(nc3ccc(O)cc13)-c1cc3c(c(=O)n1C2)COC(=O)[C@@]3(CC)OC(=O)OCCCn1ccnc1[N+](=O)[O-]"
  half-life at 10 µM (h): 2
- structureSmilesString: "CC(=O)O[C@H]1C(=O)[C@@]2(C)[C@H]([C@H](OC(=O)c3ccccc3)[C@]3(O)C[C@H](OC(=O)[C@H](OC(=O)OCCn4ccnc4[N+](=O)[O-])[C@@H](NC(=O)c4ccccc4)c4ccccc4)C(C)=C1C3(C)C)[C@]1(OC(C)=O)CO[C@@H]1C[C@@H]2O"
  half-life at 10 µM (h): 2
- structureSmilesString: "CCc1c2c(nc3ccc(O)cc13)-c1cc3c(c(=O)n1C2)COC(=O)[C@@]3(CC)OC(=O)OCCn1ccnc1[N+](=O)[O-]"
  half-life at 10 µM (h): 6

Prompt: Specify half-life at 10 µM for CC(=O)O[C@H]1C(=O)[C@@]2(C)[C@H]([C@H](OC(=O)c3ccccc3)[C@]3(O)C[C@H](OC(=O)[C@H](OC(=O)OCCCn4ccnc4[N+](=O)[O-])[C@@H](NC(=O)c4ccccc4)c4ccccc4)C(C)=C1C3(C)C)[C@]1(OC(C)=O)CO[C@@H]1C[C@@H]2O and stop.
Completion: 6
